Source: patent US20100280227A1

Listing of recorded kon by entry.
- measurement.target: T1, variant human BR3-Fc fusion
- T1 construct: produced in CHO cells; also called vBR3-Fc; vhBR3-Fc
- experiment.summary: SPR, vBR3-Fc on chip;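 note: Anti-BR3 antibodies passed over chip-bound BR3-Fc in PBS with 0.05% polysorbate 20, on and off rates fitted together globally to a 1:1 binding model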
# unit: M⁻¹ s⁻¹ | format: bare number

binder: Hu2.1-40 Fab (Fab, V domains shown, Fab) VH: EVQLVESGGGLVQPGGSLRLSCAASGDSITRGYWNWVRQAPGKGLEWVGYINYSGTTYYNPSLKSRFTISRDTSKNTFYLQMNSLRAEDTAVYYCATTLPYGAMDYWGQGTLVTVSS VL: DIQMTQSPSSLSASVGDRVTITCRASESVDDYGISFMHWYQQKPGKAPKLLIYRASDLESGVPSRFSGSGSGTDFTLTISSLQPEDFATYYCQQTSKDPWTFGQGTKVEIKR
result.units: M⁻¹ s⁻¹
kon: 380000

Field: next binder
Can you share its kon? I mean this binder: Hu2.1-40L Fab (Fab, V domains shown, Fab) VH: EVQLVESGGGLVQPGGSLRLSCAASGDSITRGYWNWVRQAPGKGLEWVGYINYSGTTYYNPSLKSRFTISRDTSKNTLYLQMNSLRAEDTAVYYCATTLPYGAMDYWGQGTLVTVSS VL: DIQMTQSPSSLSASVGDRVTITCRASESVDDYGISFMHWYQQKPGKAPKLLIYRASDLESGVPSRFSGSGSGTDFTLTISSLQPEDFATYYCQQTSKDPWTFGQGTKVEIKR 350000
